TEST_METHOD_NOTES: Toxicity liver stage against HepG2, at 10uM
Format: cell-based
Set-up: test concentration 10 uM, cell line HepG2-A16-CD81EGFP
ASSAY_CONDITIONS: human, HepG2-A16-CD81EGFP cells; read-out: INHIBITION
TEST_READOUT: cytotoxicity at 10 µM (%)

{"columns": ["COMPOUND", "RECORDED_RESULT"],
 "data": [
  ["Cc1cccc(COC[C@H]2CC[C@H]3[C@H](CCN3C(=O)CC3CC3)O2)n1", -4.66],
  ["Cc1cc(C)n(C2CCCN(C(=O)CCCc3ccccn3)C2)n1 (configuration not stated)", -16.3],
  ["Cc1ccc(CN(C)Cc2ncc(C(C)(C)C)o2)o1", -6.58],
  ["CC(C)C(C)NC(=O)Nc1cccc(OCC#N)c1 (configuration not stated)", -1.13],
  ["COCC(=O)N1CCc2c(nnn2C)C1COCCN1CCCC1 (configuration not stated)", 11.6],
  ["O=C(CS(=O)(=O)C1CCCC1)NC1CCCc2cc(OC(F)F)ccc21 (configuration not stated)", 4.84],
  ["CN(CCc1ccccc1)c1cnn(C)c(=O)c1Br", -7.22],
  ["CCCN(CCC)C(=O)Cn1c(SC)nc2ccsc2c1=O", 3.88],
  ["O=C1CC2(CCSC2)C(=O)N1Cc1ncc(-c2ccccc2)o1 (configuration not stated)", 14.4],
  ["CC(C)n1c2ccccc2c2c1cc(C(=O)O)n2C(=O)N(C)C", -94.3],
  ["CC(NC(=O)Nc1cccnc1N1CCOCC1)c1ccccc1 (configuration not stated)", 2.83],
  ["CC(NC(=O)NCC(F)(F)F)c1nncn1C (configuration not stated)", -1.63]
]}

----------
TEST_METHOD_NOTES: Toxicity liver stage against HepG2, at 10uM
Assay type: cell-based
Design: test concentration 10 uM, cell line HepG2-A16-CD81EGFP
ASSAY_CONDITIONS: human, HepG2-A16-CD81EGFP cells; read-out: INHIBITION
TEST_READOUT: cytotoxicity at 10 µM (%)

{"columns": ["MOLECULE", "TEST_READOUT", "RECORDED_RESULT"],
 "data": [
  ["CC(=O)N1CC[C@H](c2nnc(Cc3c[nH]c4ccccc34)o2)C1", "cytotoxicity at 10 µM", 8.12],
  ["CN(C)c1nc(CNC(=O)NC2COc3ccccc32)cs1 (configuration not stated)", "cytotoxicity at 10 µM", -3.38],
  ["CCNc1ncc(CN2C[C@@H](CN3CCC(CO)CC3)[C@@H](CO)C2)cn1", "cytotoxicity at 10 µM", -6.03],
  ["COc1cc2cc(C(=O)NCCC(=O)O)n(C)c2c(OC)c1OC", "cytotoxicity at 10 µM", 4.76],
  ["CCS(=O)(=O)N1CCc2c(CN3CCOCC3)cncc2C1", "cytotoxicity at 10 µM", 4.35],
  ["CCN(CC)Cc1cnc2n1CCN(Cc1c(C)noc1C)CC2", "cytotoxicity at 10 µM", 11.2],
  ["CC1CCN(C(=O)Cn2cc(I)cn2)CC1", "cytotoxicity at 10 µM", 2.19],
  ["COCCC1(C(=O)O)CCCN(C(=O)c2cc(Cl)ccc2F)C1 (configuration not stated)", "cytotoxicity at 10 µM", -2.79],
  ["COCCN1CC(=O)c2sc(NC(C)C)nc2C1", "cytotoxicity at 10 µM", -4.91],
  ["CS(=O)(=O)c1cccc(C(=O)N2CCCC(n3cccn3)C2)c1 (configuration not stated)", "cytotoxicity at 10 µM", -8.77],
  ["Cc1nccn1-c1ccc(NC(=O)C2CCCN2Cc2c[nH]cn2)cc1 (configuration not stated)", "cytotoxicity at 10 µM", -15.2],
  ["CC(C)c1noc(C(C)N2CCC(c3nc4ccccc4[nH]3)CC2)n1 (configuration not stated)", "cytotoxicity at 10 µM", -3.17],
  ["O=C1NCCCC[C@@H]1Nc1ccc(-c2nc(C3CC3)no2)cn1", "cytotoxicity at 10 µM", 2.87],
  ["COCCN1CCC(CNc2nc3ccccc3o2)CC1", "cytotoxicity at 10 µM", -53.6],
  ["CCOC1COC2(CCN(S(=O)(=O)c3ccc(F)cc3)CC2)C1 (configuration not stated)", "cytotoxicity at 10 µM", -109],
  ["Cc1nc2c(c(NCC(O)C(F)(F)F)n1)CCNCC2 (configuration not stated)", "cytotoxicity at 10 µM", 5.37],
  ["CSc1ccc(CN(C)C(=O)c2cc3c([nH]c2=O)CCCC3=O)cc1", "cytotoxicity at 10 µM", -1.25],
  ["Cc1ccc(CN(C)C(=O)CN2CCCCC2Cn2cncn2)o1 (configuration not stated)", "cytotoxicity at 10 µM", 0.508],
  ["CCCN1C(=O)C2(CCCCC2)NC1c1cn(C)c(=O)n(C)c1=O (configuration not stated)", "cytotoxicity at 10 µM", 4.45],
  ["CCN1CCC(CNC(=O)C2(c3cccc(C)c3)CCCCC2)CC1", "cytotoxicity at 10 µM", -11.8],
  ["COCCNC(=O)c1nc(-c2ccc3cc[nH]c3c2)no1", "cytotoxicity at 10 µM", -0.208],
  ["Fc1ccc(CN2CCCC(Cn3cncn3)C2)c2ncccc12 (configuration not stated)", "cytotoxicity at 10 µM", -12.4],
  ["Cc1ccc(Oc2ncccc2CNC2Cc3ccccc3C2)cn1", "cytotoxicity at 10 µM", -2.19],
  ["COc1ccc(C(C)n2ccnc2-c2cc3n(n2)CCCNC3)cc1F (configuration not stated)", "cytotoxicity at 10 µM", -3.06],
  ["O=C(CCNC(=O)C1CCCC1)NCc1cccnc1-n1cncn1", "cytotoxicity at 10 µM", -3.39],
  ["OCC1CCCN1c1cc(NCc2ccccn2)ncn1 (configuration not stated)", "cytotoxicity at 10 µM", -8.01],
  ["Cc1cc(N2CCC(N3CCOCC3)C2)n2nc(C)c(C)c2n1 (configuration not stated)", "cytotoxicity at 10 µM", 3.9],
  ["CC(=O)N1CC[C@H]2OCC[C@@H](C(=O)NCc3ccco3)[C@@H]2C1", "cytotoxicity at 10 µM", -77.4],
  ["Cc1ccccc1N1CCN(C(=O)c2ccc[nH]2)C(C)C1 (configuration not stated)", "cytotoxicity at 10 µM", -8.68],
  ["Cc1nnc(CN(C)C2CCN(c3cccc(-c4cscn4)c3)CC2)o1", "cytotoxicity at 10 µM", -7.3],
  ["O=C(NCCCn1cncn1)NCC(c1ccccc1)N1CCCC1 (configuration not stated)", "cytotoxicity at 10 µM", -3.99],
  ["CCn1c(CN(C)C)nnc1C1CCN(Cc2ccc(Cl)c(F)c2)CC1", "cytotoxicity at 10 µM", 3.73],
  ["Cn1[nH]c(C2CC2)c(-c2ccc3c(c2)OCO3)c1=N", "cytotoxicity at 10 µM", -47.5],
  ["COc1cccc(NC(=O)Cn2c(=O)nc(N)c3cc(C)sc32)c1", "cytotoxicity at 10 µM", -8.72],
  ["O=C(NCc1ccco1)[C@H]1CC[C@@H]2[C@@H](CCN2Cc2cccnc2)O1", "cytotoxicity at 10 µM", -3.68],
  ["CCCNC(=O)C1CCN(CC(O)c2ccccc2C(F)(F)F)CC1 (configuration not stated)", "cytotoxicity at 10 µM", 3.21],
  ["Cc1ccc(OCCN(C)S(=O)(=O)c2cnn(C)c2)cc1", "cytotoxicity at 10 µM", 0.821],
  ["COC(=O)[C@@H]1Cc2ncn(C)c2CN1S(=O)(=O)c1ccc(C)cc1", "cytotoxicity at 10 µM", 2.08],
  ["COCc1nc2cc(NCc3ncc[nH]3)ccc2o1", "cytotoxicity at 10 µM", -4.52],
  ["Cc1cc(C[C@@H]2COC[C@@H]2NC(=O)CNC(=O)N(C)C)on1", "cytotoxicity at 10 µM", 2.57],
  ["Cc1ccc(C(=O)Nc2cc(C(C)C)n[nH]2)cn1", "cytotoxicity at 10 µM", 55.8],
  ["CCNc1cc2c(nn1)CCN(C(=O)c1ccc(-n3cnnc3)cc1)C2", "cytotoxicity at 10 µM", -3.51],
  ["CCN1CC2(CC1=O)CN(Cc1cnn(C)c1)CCN(C(C)=O)C2 (configuration not stated)", "cytotoxicity at 10 µM", -12.5],
  ["c1cncc(CN2CCC(c3ccc4c(c3)OCO4)CC2)c1", "cytotoxicity at 10 µM", -0.415],
  ["NC(=O)C1CCN(Cn2nc(-c3ccccc3)oc2=O)CC1", "cytotoxicity at 10 µM", -16.8],
  ["O=C(NCC(O)COc1cccc(F)c1)c1ccoc1 (configuration not stated)", "cytotoxicity at 10 µM", -2.56],
  ["Cc1cc(CN(C)CC(c2cccs2)N2CCOCC2)on1 (configuration not stated)", "cytotoxicity at 10 µM", 0.049]
]}
